Measured values drawn from patent US20140148470A1 for this set.

Target: human CRTH2 (Homo sapiens)
Sequence (Q9Y5Y4 whole entry): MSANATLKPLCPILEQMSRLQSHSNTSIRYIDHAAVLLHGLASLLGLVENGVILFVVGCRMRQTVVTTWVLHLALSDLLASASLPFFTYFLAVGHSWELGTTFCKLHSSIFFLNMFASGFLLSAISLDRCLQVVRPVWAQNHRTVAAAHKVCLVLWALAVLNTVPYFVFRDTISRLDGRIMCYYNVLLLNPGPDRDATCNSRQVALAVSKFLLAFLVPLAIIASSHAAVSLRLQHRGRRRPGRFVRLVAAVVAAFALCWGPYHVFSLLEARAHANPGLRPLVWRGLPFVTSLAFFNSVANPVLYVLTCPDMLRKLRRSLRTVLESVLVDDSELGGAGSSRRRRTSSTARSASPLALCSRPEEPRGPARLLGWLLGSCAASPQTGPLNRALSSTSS
Assay: Measurement of Ca2+ mobilization in the human CRTH2-transfected L1.2 cell line
Conditions: PGD2-induced Ca2+ mobilization, human CRTH2-transfected L1.2 cells; compounds as yielded by solid phase synthesis, purity about 40 to 90%; read-out: Activity class (IC50)
observable: IC50

Solved cases below.
1. CN(C)c1nc(Cc2ccc(NC(=O)c3ccc4ccccc4c3)cc2)nc(Cl)c1CC(N)=O [Example 22] : 10 to 100 nM
2. O=C(O)Cc1c(Cl)nc(Cc2ccc(NC(=O)c3ccc4ccccc4c3)cc2)nc1Cl [Example 20] : < 10 nM
3. CN(C)c1nc(Cc2ccc(NC(=O)c3ccc(C(F)(F)F)cc3)cc2)nc(N(C)C)c1CC(=O)O [Example 14] : < 10 nM

Per the reported human CRTH2 (Homo sapiens) data, CN(C)c1nc(Cc2ccc(NC(=O)c3ccc4ccccc4c3)cc2)ncc1CC(=O)O [Example 10] has IC50 of < 10 nM

Per the reported human CRTH2 (Homo sapiens) data, CN(C)c1nc(Cc2ccc(NC(=O)c3ccc4ccccc4c3)cc2)nc(Cl)c1CC(=O)O [Example 1] has IC50 of < 10 nM

Per the reported human CRTH2 (Homo sapiens) data, CN(C)c1nc(Cc2ccc(NC(=O)c3ccc4ccccc4c3)cc2)nc(Cl)c1Cc1nnn[nH]1 [Example 21] has IC50 of < 10 nM
